Collected melting point values appear next to each entry.

INSERT INTO results (compound, readoutlabel, endpointresult) VALUES
  ('CC(C)(C)C(=O)C(C(CC#N)c1ccccc1)n1ccnc1 (stereo not given)', 'melting point', '108 to 111 °C');

### Prompt What melting point value was documented for this compound, Oc1ccc(C(=C(c2ccccc2)C(F)(F)F)c2ccc(OCCN3CCOCC3)cc2)cc1 ?
### Response 154 to 157 °C

### Prompt What melting point value was documented for this compound, O=C(OC1c2ccccc2C(=O)N1c1ccc2ccc(Cl)nc2n1)N1CCN(C=S)CC1 (stereo not given) ?
### Response 295 °C

### Prompt What melting point value was documented for this compound, CC(C)(C)C(=O)c1ccc(C(C)(C)C(=O)O)cc1 ?
### Response 128 to 130 °C

### Prompt What melting point value was documented for this compound, O=C(Nc1cc(C(F)(F)F)cc2ncn(-c3ccccc3)c12)c1ccccc1 ?
### Response 152 to 155 °C

### Prompt What melting point value was documented for this compound, O=[N+]([O-])c1ccc(C(O)c2ccoc2)cc1 (stereo not given) ?
### Response 50 to 52 °C

### Prompt What melting point value was documented for this compound, CCOC(=O)c1cccc(Cc2c[nH]cn2)c1O ?
### Response 133 °C
